Please go through the items and note down their pIC50.
MEASUREMENT TARGET: human PI3Kdelta p110 catalytic subunit (Rat-1 pBABEpuro Myr-HA-hp110 delta) (Homo sapiens)
Construct: Myr (myristoylation signal) (N); HA (N)
Sequence (O00329 whole entry): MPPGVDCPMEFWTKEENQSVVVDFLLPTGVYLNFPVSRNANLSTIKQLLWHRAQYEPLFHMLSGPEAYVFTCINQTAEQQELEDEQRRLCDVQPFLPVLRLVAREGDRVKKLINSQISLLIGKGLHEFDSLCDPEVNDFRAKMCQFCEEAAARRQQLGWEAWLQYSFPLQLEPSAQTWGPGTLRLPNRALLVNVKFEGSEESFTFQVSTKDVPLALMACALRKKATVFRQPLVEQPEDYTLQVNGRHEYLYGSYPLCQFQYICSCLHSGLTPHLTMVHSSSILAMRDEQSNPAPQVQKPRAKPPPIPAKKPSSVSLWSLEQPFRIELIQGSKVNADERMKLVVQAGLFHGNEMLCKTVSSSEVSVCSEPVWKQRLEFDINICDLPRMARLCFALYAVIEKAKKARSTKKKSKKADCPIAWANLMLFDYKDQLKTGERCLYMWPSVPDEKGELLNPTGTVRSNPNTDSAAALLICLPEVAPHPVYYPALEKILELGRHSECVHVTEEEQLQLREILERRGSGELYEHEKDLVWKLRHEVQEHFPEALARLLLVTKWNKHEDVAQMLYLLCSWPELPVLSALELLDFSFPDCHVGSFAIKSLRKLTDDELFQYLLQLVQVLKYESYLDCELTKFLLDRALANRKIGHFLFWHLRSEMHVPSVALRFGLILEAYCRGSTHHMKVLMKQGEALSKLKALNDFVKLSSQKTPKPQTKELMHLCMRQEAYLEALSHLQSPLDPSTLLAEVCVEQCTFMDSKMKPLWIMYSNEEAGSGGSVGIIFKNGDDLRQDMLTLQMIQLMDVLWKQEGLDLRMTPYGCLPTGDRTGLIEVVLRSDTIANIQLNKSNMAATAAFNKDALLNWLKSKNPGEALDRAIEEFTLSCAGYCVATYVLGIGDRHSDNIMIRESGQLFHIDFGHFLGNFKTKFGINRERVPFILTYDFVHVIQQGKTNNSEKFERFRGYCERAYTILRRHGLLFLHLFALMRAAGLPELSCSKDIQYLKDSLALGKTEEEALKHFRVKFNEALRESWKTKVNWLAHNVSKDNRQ
Sequence (Q63787 whole entry partner): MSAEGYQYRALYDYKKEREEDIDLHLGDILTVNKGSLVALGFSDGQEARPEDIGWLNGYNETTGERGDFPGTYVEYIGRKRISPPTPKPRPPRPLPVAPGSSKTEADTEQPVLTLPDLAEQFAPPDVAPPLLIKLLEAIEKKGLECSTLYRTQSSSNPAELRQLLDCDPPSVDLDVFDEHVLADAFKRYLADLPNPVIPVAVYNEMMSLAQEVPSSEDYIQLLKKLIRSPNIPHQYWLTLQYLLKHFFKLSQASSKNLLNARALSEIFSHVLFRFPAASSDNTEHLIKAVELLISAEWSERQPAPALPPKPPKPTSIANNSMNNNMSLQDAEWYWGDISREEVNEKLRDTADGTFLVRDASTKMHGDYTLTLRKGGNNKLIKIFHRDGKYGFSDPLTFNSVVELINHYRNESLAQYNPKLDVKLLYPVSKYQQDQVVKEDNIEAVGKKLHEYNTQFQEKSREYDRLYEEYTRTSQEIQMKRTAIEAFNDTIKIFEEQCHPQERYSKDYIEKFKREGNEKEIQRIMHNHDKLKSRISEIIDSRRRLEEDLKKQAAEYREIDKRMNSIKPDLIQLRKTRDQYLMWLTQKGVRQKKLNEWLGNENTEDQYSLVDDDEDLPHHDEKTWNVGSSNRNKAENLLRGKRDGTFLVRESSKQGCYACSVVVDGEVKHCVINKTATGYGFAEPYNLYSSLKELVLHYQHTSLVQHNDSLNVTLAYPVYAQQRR
TEST PROTOCOL: Cellular assay PI3Kdelta (p-Akt(S473) SureFire, Rat-1_PI3Kdelta cells)
APPLIED CONDITIONS: 1 h compound treatment, read-out: Rat1-PI3Kd/ IC50
For clarity, pIC50 is expressed as the negative log10 of concentration in mol/L.

Consider the compound Nc1ncc(-c2cc(N3CCOC3=O)nc(N3CCOCC3)n2)c(C(F)(F)F)n1 [Example 11, reference compound] and give its recorded pIC50.
6.86

Entry "COC[C@H]1COC(=O)N1c1cc(-c2cnc(N)nc2C(F)(F)F)nc(N2CCOCC2)n1" needs its pIC50 filled in; supply it.
7.64

Supply measured pIC50 of "C[C@H]1OC(=O)N(c2cc(-c3cnc(N)nc3C(F)(F)F)nc(N3CCOCC3)n2)[C@H]1CO" in your reply.
7.55

State its pIC50 for this compound: Nc1ncc(-c2cc(N3C(=O)OC4C(O)CCC43)nc(N3CCOCC3)n2)c(C(F)(F)F)n1 (single isomer, unassigned) [Example 22B]
8.30

Retrieve pIC50 measured for "C[C@H]1CN(c2cc(-c3cnc(N)nc3C(F)(F)F)nc(N3CCOCC3)n2)C(=O)O1" and print it.
7.06

Tell us which pIC50 value is on record for "C[C@H]1COC(=O)N1c1cc(-c2cnc(N)nc2C(F)(F)F)nc(N2CCOCC2)n1"
7.57

Recall and state the measured pIC50 for "Nc1ncc(-c2cc(N3C(=O)OC[C@@H]3CCO)nc(N3CCOCC3)n2)c(C(F)(F)F)n1" .
7.11
